Source of measurements: the supplement of paper PMC8617591

- System: Mycobacterium tuberculosis Erdman (autoluminescent)
- assayName: total FIC90 (Loewe) at 90% inhibition, three-drug combination (log2); higher = more antagonistic
- assaySetup: in vitro model: dormancy (butyrate + nitrate, low O2); time point: terminal (~4-5 doublings, model-specific)
reportedMetric: total FIC90
# respond with the number and nothing more

### Prompt What total FIC90 value was documented for this molecule, NNC(=O)c1ccncc1 [isoniazid] + CC(=O)NC[C@H]1CN(c2ccc(N3CCOCC3)c(F)c2)C(=O)O1 [linezolid] + COc1c(N2C[C@@H]3CCCN[C@@H]3C2)c(F)cc2c(=O)c(C(=O)O)cn(C3CC3)c12 [moxifloxacin] ?
### Response 0.562

### Prompt What value of total FIC90 has been reported for the following molecule? COc1nc2ccc(Br)cc2cc1[C@@H](c1ccccc1)[C@@](O)(CCN(C)C)c1cccc2ccccc12 [bedaquiline] + COc1c(N2C[C@@H]3CCCN[C@@H]3C2)c(F)cc2c(=O)c(C(=O)O)cn(C3CC3)c12 [moxifloxacin] + CO[C@H]1/C=C/O[C@@]2(C)Oc3c(C)c(O)c4c(O)c(c(/C=N/N5CCN(C6CCCC6)CC5)c(O)c4c3C2=O)NC(=O)/C(C)=C\C=C\[C@H](C)[C@H](O)[C@@H](C)[C@@H](O)[C@@H](C)[C@H](OC(C)=O)[C@@H]1C [rifapentine]
### Response 1.35

### Prompt // lookup total FIC90 for O=[N+]([O-])c1cn2c(n1)OC[C@@H](OCc1ccc(OC(F)(F)F)cc1)C2 [pretomanid] + NC(=O)c1cnccn1 [pyrazinamide] + CO[C@H]1/C=C/O[C@@]2(C)Oc3c(C)c(O)c4c(O)c(c(/C=N/N5CCN(C)CC5)c(O)c4c3C2=O)NC(=O)/C(C)=C\C=C\[C@H](C)[C@H](O)[C@@H](C)[C@@H](O)[C@@H](C)[C@H](OC(C)=O)[C@@H]1C
### Response -0.0518

----------
- Tested on: Mycobacterium tuberculosis Erdman (autoluminescent)
- assayName: Einf, fitted maximum growth inhibition of three-drug combination (fraction); higher = stronger maximal inhibition
- assaySetup: in vitro model: valerate; time point: constant (~7 days, model-specific)
reportedMetric: Einf
Write the value as a bare number.

### Prompt What does the record list as Einf for COc1nc2ccc(Br)cc2cc1[C@@H](c1ccccc1)[C@@](O)(CCN(C)C)c1cccc2ccccc12 [bedaquiline] + CC[C@@H](CO)NCCN[C@@H](CC)CO [ethambutol] + NNC(=O)c1ccncc1 [isoniazid] ?
### Response 0.912

### Prompt # query: Einf of entry NNC(=O)c1ccncc1 [isoniazid] + COc1c(N2C[C@@H]3CCCN[C@@H]3C2)c(F)cc2c(=O)c(C(=O)O)cn(C3CC3)c12 [moxifloxacin] + NC(=O)c1cnccn1 [pyrazinamide]
### Response 0.877

### Prompt Bench note: what Einf did COc1c(N2C[C@@H]3CCCN[C@@H]3C2)c(F)cc2c(=O)c(C(=O)O)cn(C3CC3)c12 [moxifloxacin] + NC(=O)c1cnccn1 [pyrazinamide] + CO[C@H]1/C=C/O[C@@]2(C)Oc3c(C)c(O)c4c(O)c(c(/C=N/N5CCN(C6CCCC6)CC5)c(O)c4c3C2=O)NC(=O)/C(C)=C\C=C\[C@H](C)[C@H](O)[C@@H](C)[C@@H](O)[C@@H](C)[C@H](OC(C)=O)[C@@H]1C show?
### Response 0.81

### Prompt Look up Einf for this molecule: CC(C)/N=c1\cc2n(-c3ccc(Cl)cc3)c3ccccc3nc-2cc1Nc1ccc(Cl)cc1 [clofazimine] + CC[C@@H](CO)NCCN[C@@H](CC)CO [ethambutol] + O=[N+]([O-])c1cn2c(n1)OC[C@@H](OCc1ccc(OC(F)(F)F)cc1)C2 [pretomanid]
### Response 0.867

### Prompt GET /values?readout=Einf&item= COc1nc2ccc(Br)cc2cc1[C@@H](c1ccccc1)[C@@](O)(CCN(C)C)c1cccc2ccccc12 [bedaquiline] + COc1c(N2C[C@@H]3CCCN[C@@H]3C2)c(F)cc2c(=O)c(C(=O)O)cn(C3CC3)c12 [moxifloxacin] + CO[C@H]1/C=C/O[C@@]2(C)Oc3c(C)c(O)c4c(O)c(c(/C=N/N5CCN(C)CC5)c(O)c4c3C2=O)NC(=O)/C(C)=C\C=C\[C@H](C)[C@H](O)[C@@H](C)[C@@H](O)[C@@H](C)[C@H](OC(C)=O)[C@@H]1C [rifampicin]
### Response 0.884
